Each recorded value in this set is attributed to patent US20240317721A1.

Below is a list of entries, each paired with its recorded IC50 value.
Molecular target: KRasG12C (M1-K169, biotinylated on the N-terminus) (Homo sapiens (Human), UniProt P01116, G12C)
Assay: Covalent competition assay: scintillation proximity assay (SPA) quantifying covalent modification of KRASG12C
Conditions: competition with radiolabeled covalent probe (Compound B/Compound A), 2 hours incubation, 10 nM KRasG12C

compound	IC50
C=CC(=O)N1CC2(CC(n3nc(N4CCN(S(C)(=O)=O)CC4(C)C)c(-c4c(Cl)c(C)cc5[nH]ncc45)c3C)C2)C1 (single isomer, unassigned) [Example 126a]	> 50 µM
C=CC(=O)N1CC2(CC(n3nc(N4CC[C@@H](CN5CCN6C(=O)COC[C@@H]6C5)CC4(C)C)c(-c4c(Cl)c(Cl)cc5[nH]ncc45)c3C)C2)C1 (single isomer, unassigned) [Example 275a]	> 5 µM

As a next step, examine the compound that follows.
Q) Could you share which IC50 value was measured for C=CC(=O)N1CC2(CC(n3nc(N4CCN(C(C)C)CC45CCC5)c(-c4c(Cl)c(C)cc5[nH]ncc45)c3C)C2)C1 (single isomer, unassigned) [Example 131a] ?
A) > 5 µM

---

Listed next: entries and their corresponding pIC50.
Target: KRasG12C (M1-K169, biotinylated on the N-terminus) (Homo sapiens (Human), UniProt P01116, G12C)
Assay: Covalent competition assay: scintillation proximity assay (SPA) quantifying covalent modification of KRASG12C
Type: binding
Details: competition with radiolabeled covalent probe (Compound B/Compound A), 2 hours incubation, 10 nM KRasG12C
pIC50: −log10 of the molar value.

Solved cases below.
compound	pIC50
C=CC(=O)N1CC2(CC(n3nc(N4CCOCC4(C)C)c(-c4c(Cl)c(C)cc5[nH]ncc45)c3C)C2)C1 (single isomer, unassigned) [Example 22a]	< 4.30
C=CC(=O)N1CC2(CC(n3nc(N4CCN(C5COC5)CC45CCCC5)c(-c4c(Cl)c(C)cc5[nH]ncc45)c3C)C2)C1 (single isomer, unassigned) [Example 144a]	< 5.30
C=CC(=O)N1CC2(CC(n3nc(N4CC[C@@H](CN5CCN(C6COC6)CC5)CC4(C)C)c(-c4c(Cl)c(C)cc5[nH]ncc45)c3C)C2)C1 (single isomer, unassigned) [Example 246a]	< 5.30

Now take the following compound into account.
Q) For C=CC(=O)N1CC2(CC(n3nc(N4CCN(C5COC5)CC4(C)C)c(-c4c(Cl)c(Cl)cc5[nH]ncc45)c3C)C2)C1 (single isomer, unassigned) [Example 73a] , what is its reported pIC50?
A) < 5.30

---

Target: KRasG12C (M1-K169, biotinylated on the N-terminus) (Homo sapiens (Human), UniProt P01116, G12C)
Assay: Covalent competition assay: scintillation proximity assay (SPA) quantifying covalent modification of KRASG12C
Details: competition with radiolabeled covalent probe (Compound B/Compound A), 2 hours incubation, 10 nM KRasG12C
pIC50: −log10 of the molar value.
Overview of recorded pIC50 for various compounds

Consider the following illustrative entries.
compound	pIC50
C=CC(=O)N1CC2(CC(n3nc(N4CCN(C(C)=O)C[C@]4(C)CC)c(-c4c(Cl)c(C)cc5[nH]ncc45)c3C)C2)C1 (single isomer, unassigned) [Example 121a]	< 5.30
C=CC(=O)N1CC2(CC(n3nc(N4CCN(C(C)=O)CC4)c(-c4c(Cl)ccc5[nH]ncc45)c3C)C2)C1C (single isomer, unassigned) [Example 198a]	< 4.30
C=CC(=O)N1CC2(CC(n3nc(N4CCC(N(C)C(=O)COC)CC4(C)C)c(-c4c(Cl)c(C)cc5[nH]ncc45)c3C)C2)C1 (single isomer, unassigned) [Example 96a]	< 5.30

Now for another entry.
Q) Can you look up the measured pIC50 of C=CC(=O)N1CC2(CC(n3nc(N4CC[C@@H](CN5CCN(C6COC6)C6COCC65)CC4(C)C)c(-c4c(Cl)c(Cl)cc5[nH]ncc45)c3C)C2)C1 (single isomer, unassigned) [Example 281b] for me?
A) > 8.30

---

Molecular target: KRasG12C (M1-K169, biotinylated on the N-terminus) (Homo sapiens (Human), UniProt P01116, G12C)
Test: Covalent competition assay: scintillation proximity assay (SPA) quantifying covalent modification of KRASG12C
Conditions: competition with radiolabeled covalent probe (Compound B/Compound A), 2 hours incubation, 10 nM KRasG12C
Recorded IC50, one value per entry.

Illustrative cases are given below, each with its answer.
compound	IC50
CC#CC(=O)N1CC2(CC(n3nc(N4CCN(C5COC5)CC45CCC5)c(-c4c(Cl)c(C)cc5[nH]ncc45)c3C)C2)C1 (single isomer, unassigned) [Example 78b]	> 5 µM
C=C(F)C(=O)N1CC2(CC(n3nc(N4CCN(C[C@@H]5COCCO5)C[C@]4(C)CC)c(-c4c(Cl)c(C)cc5[nH]ncc45)c3C)C2)C1 (single isomer, unassigned) [Example 174a]	> 5 µM

// moving on: another record for IC50
Q) Sample C=CC(=O)N1CC2(CC(n3nc(N4CCN(C(C)=O)C[C@@H]4C(C)C)c(-c4c(Cl)c(C)cc5[nH]ncc45)c3C)C2)C1 (single isomer, unassigned) [Example 95a] — what was its IC50?
A) > 5 µM

---

Target: KRasG12C (M1-K169, biotinylated on the N-terminus) (Homo sapiens (Human), UniProt P01116, G12C)
Assay: Covalent competition assay: scintillation proximity assay (SPA) quantifying covalent modification of KRASG12C
Details: competition with radiolabeled covalent probe (Compound B/Compound A), 2 hours incubation, 10 nM KRasG12C
# IC50 per record follows

molecule	IC50
C=CC(=O)N1CC2(CC(n3nc(N4CCC5C(CC(=O)N5C)C4)c(-c4c(Cl)c(C)cc5[nH]ncc45)c3C)C2)C1 (single isomer, unassigned) [Example 38a]	> 5 µM
C=CC(=O)N1CC2(CC(n3nc(N4CCN(C(C)(C)C(=O)OC)CC45CCC5)c(-c4c(Cl)c(C)cc5[nH]ncc45)c3C)C2)C1 (single isomer, unassigned) [Example 180a]	> 5 µM
C=CC(=O)N1CC2(CC(n3nc(N4CCN(C[C@@H]5COCCO5)C[C@]4(C)CC)c(-c4c(Cl)c(Cl)cc5[nH]ncc45)c3C)C2)C1 (single isomer, unassigned) [Example 89b]	< 0.005 µM

Q) Could you share which IC50 value was measured for C=CC(=O)N1CC2(CC(n3nc(N4CCN(C5CCOCC5)C[C@@]4(CC)C(F)F)c(-c4c(Cl)c(C)cc5[nH]ncc45)c3C)C2)C1 (single isomer, unassigned) [Example 156a] ?
A) > 5 µM

Q) Given the entry C=CC(=O)N1CC2(CC(n3nc(N4CCC(N5C6CCC5COC6)CC4(C)C)c(-c4c(Cl)c(C)cc5[nH]ncc45)c3C)C2)C1 (single isomer, unassigned) [Example 75b] , report its measured IC50.
A) 0.228 µM

---

Target: KRasG12C (M1-K169, biotinylated on the N-terminus) (Homo sapiens (Human), UniProt P01116, G12C)
Test: Covalent competition assay: scintillation proximity assay (SPA) quantifying covalent modification of KRASG12C
Conditions: competition with radiolabeled covalent probe (Compound B/Compound A), 2 hours incubation, 10 nM KRasG12C
Experimental: Cells were harvested by centrifugation and frozen at −80° C. until further processing. […] The cells were lysed by 4 passages through an Avestin Emulsiflex at about 20000 psi and insoluble debris removed by centrifugation and filtered through a 0.45 µm Durapore membrane (Millipore). […] Eluted protein fractions were analyzed by Novex NuPage 4-12% PAGE. […] Positive fractions were determined by PAGE (Novex NuPage 4-12% BisTris) analysis. […]
pIC50: −log10 of the molar value.
propertyLabel: pIC50

Examples with their reported pIC50 follow.
molecule	pIC50
C=CC(=O)N1CC2(CC(n3nc(N4CC[C@@H](CN5CC6OCCN(C)C6C5)CC4(C)C)c(-c4c(Cl)c(Cl)cc5[nH]ncc45)c3C)C2)C1 (single isomer, unassigned) [Example 259b]	8.00
C=CC(=O)N1CC2(CC(n3nc(N4CC[C@@H](CN5CCN6CCOC[C@H]6C5)CC4(C)C)c(-c4c(Cl)c(Cl)cc5[nH]ncc45)c3C)C2)C1 (single isomer, unassigned) [Example 288a]	5.31

a: C=CC(=O)N1CC2(CC(n3nc(N4CCN(C[C@@H]5COCCO5)C[C@]4(C)CCOC)c(-c4c(Cl)c(C)cc5[nH]ncc45)c3C)C2)C1 (single isomer, unassigned) [Example 85b]
b: C=CC(=O)N1CC2(CC(n3nc(N4CCN(C5COC5)CC45CCC5)c(-c4c(Cl)c(Cl)cc5[nH]ncc45)c3C)C2)C1 (single isomer, unassigned) [Example 72a]
Q) // max by pIC50 over [ a , b ] Could you answer with the label of the item you picked?
A) a
(a: 8.10, b: 5.51)

---

Target: KRasG12C (M1-K169, biotinylated on the N-terminus) (Homo sapiens (Human), UniProt P01116, G12C)
Assay: Covalent competition assay: scintillation proximity assay (SPA) quantifying covalent modification of KRASG12C
Details: competition with radiolabeled covalent probe (Compound B/Compound A), 2 hours incubation, 10 nM KRasG12C
propertyLabel: IC50

Known results for compounds:
compound	IC50
C=CC(=O)N1CC2(CC(n3nc(N4CCC(N5C[C@H](OC)[C@H](OC)C5)CC4(C)C)c(-c4c(Cl)c(C)cc5[nH]ncc45)c3C)C2)C1 (single isomer, unassigned) [Example 102a]	> 5000 nM
C=CC(=O)N1CC2(CC(n3nc(N4CCC5(CN(C6COC6)C5)CC4(C)C)c(-c4c(Cl)c(Cl)cc5[nH]ncc45)c3C)C2)C1 (single isomer, unassigned) [Example 92b]	7 nM

Q) Can you look up the measured IC50 of C=CC(=O)N1CC2(CC(n3nc(N4CCN(CC(F)(F)F)CC4(C)C)c(-c4c(Cl)c(C)cc5[nH]ncc45)c3C)C2)C1 (single isomer, unassigned) [Example 68a] for me?
A) > 15000 nM
